Source: patent USRE45173E1

# measurementTarget: recombinant human CYP17 enzyme (Homo sapiens (Human))
# Sequence (P05093 whole entry): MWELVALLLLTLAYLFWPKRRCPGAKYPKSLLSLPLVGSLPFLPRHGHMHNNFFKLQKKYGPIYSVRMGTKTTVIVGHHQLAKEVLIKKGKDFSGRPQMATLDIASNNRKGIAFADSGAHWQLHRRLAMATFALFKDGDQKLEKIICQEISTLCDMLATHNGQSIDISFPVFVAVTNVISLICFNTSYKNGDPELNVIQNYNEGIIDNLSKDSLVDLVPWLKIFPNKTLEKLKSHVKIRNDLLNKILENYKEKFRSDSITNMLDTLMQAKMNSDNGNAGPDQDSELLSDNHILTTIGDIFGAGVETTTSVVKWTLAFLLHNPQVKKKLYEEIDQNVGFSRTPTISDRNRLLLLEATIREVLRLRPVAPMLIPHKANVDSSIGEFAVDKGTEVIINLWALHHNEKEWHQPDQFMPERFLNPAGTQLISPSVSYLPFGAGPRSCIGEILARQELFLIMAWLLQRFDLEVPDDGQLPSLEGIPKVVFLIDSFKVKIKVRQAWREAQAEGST
# protocolText: Cytochrome P450, 17-20 lyase (CYP17-lyase) assay, tritiated acetic acid release from 17-α-hydroxy pregnenolone [21-3H]
# Format: biochemical
# conditionNotes: read-out: Lyase IC 50 nM Human/Rat (Human)
Structures can show the parent of a compound that is named as a salt.
measureName: IC50 (nM)
Report as a plain number; the unit nM is understood.

Form field: reported IC50 of Cc1c(N2CCN(c3ccc4ncsc4c3)C2=O)cncc1C(F)(F)F [Example 153A, Trifluoroacetic Acid Salt]
280

====

# measurementTarget: rat CYP17 lyase (Rattus norvegicus (Rat))
# Sequence (P11715 whole entry): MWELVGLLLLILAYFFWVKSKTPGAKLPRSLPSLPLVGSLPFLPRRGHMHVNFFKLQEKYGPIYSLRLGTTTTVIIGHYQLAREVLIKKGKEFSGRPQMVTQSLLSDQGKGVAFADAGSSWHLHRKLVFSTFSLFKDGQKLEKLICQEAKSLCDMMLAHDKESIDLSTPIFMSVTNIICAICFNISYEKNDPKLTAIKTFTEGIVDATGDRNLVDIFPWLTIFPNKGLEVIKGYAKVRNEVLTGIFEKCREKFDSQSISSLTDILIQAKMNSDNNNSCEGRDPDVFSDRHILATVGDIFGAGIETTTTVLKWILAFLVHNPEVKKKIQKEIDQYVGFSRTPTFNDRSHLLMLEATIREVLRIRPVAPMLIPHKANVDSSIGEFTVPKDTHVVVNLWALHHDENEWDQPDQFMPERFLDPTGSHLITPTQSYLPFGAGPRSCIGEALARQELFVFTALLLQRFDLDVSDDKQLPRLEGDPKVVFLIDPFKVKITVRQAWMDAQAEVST
# protocolText: rat CYP 17 Lyase model, rat testes microsomes as the source
# Format: biochemical
# conditionNotes: 100 nM compound; read-out: rCYP17 Lyase % Inh @ 100 nM
Note to self: values exactly at 70% are TRUE. So inhibition at 0.1 µM at or above 70% is TRUE, below is FALSE.

Reported inhibition at 0.1 µM reaches at least 70% for CCN1C(=O)CCc2cc(N3CCN(c4cccnc4)C3=O)ccc21 [Example 5A] ?
FALSE

Reported inhibition at 0.1 µM reaches at least 70% for O=C1N(c2cccnc2)CCCN1c1ccc2sccc2c1 [Example 13A] ?
FALSE

Reported inhibition at 0.1 µM reaches at least 70% for O=C1N(c2cccnc2)CCN1c1ccc2ncccc2c1 [Example 8A] ?
FALSE

Reported inhibition at 0.1 µM reaches at least 70% for O=C1N(c2cncc(Cl)c2)CCN1c1ccc2ccccc2c1 [Example 80A] ?
FALSE

Reported inhibition at 0.1 µM reaches at least 70% for Cc1ccncc1N1CCN(c2ccc3[nH]ncc3c2)C1=O [Example 28A] ?
FALSE

Reported inhibition at 0.1 µM reaches at least 70% for Cc1ccncc1N1CCN(c2cc3ccccc3s2)C1=O [Example 26A] ?
TRUE

Reported inhibition at 0.1 µM reaches at least 70% for CCN1C(=O)CCc2cc(N3CCN(c4cnccc4C)C3=O)ccc21 [Example 17A] ?
TRUE

Reported inhibition at 0.1 µM reaches at least 70% for Cc1ccncc1N1CCN(c2ccc(F)nc2)C1=O [Example 30A] ?
TRUE

Reported inhibition at 0.1 µM reaches at least 70% for Cc1cc(Cl)nc2ccc(N3CCN(c4cccnc4)C3=O)cc12 [Example 11A] ?
FALSE
